Protocol Text: AUC in rat at 3 mg/kg, po
Format: ADME, organism-based
Design: dose 3 mg/kg, route oral
Condition Set: plasma
Measured Endpoint: AUC (ng·h/mL)

input: Note AUC for the molecule shown: `COC(=O)N[C@H](C(=O)N1CCC[C@H]1C(=O)Nc1ccc([C@H]2CC[C@H](c3ccc(NC(=O)[C@@H]4CCCN4C(=O)[C@@H](NC(=O)OC)C(C)C)cc3)N2c2ccc(C(C)(C)C)cc2)cc1)C(C)C`
output: 220

[A] COC(=O)N[C@H](C(=O)N1CCC[C@H]1C(=O)Nc1ccc([C@H]2CC[C@H](c3ccc(NC(=O)[C@@H]4CCCN4C(=O)[C@@H](NC(=O)OC)C(C)C)cc3)N2c2ccc(F)cc2)cc1)C(C)C
[B] COC(=O)N[C@H](C(=O)N1CCC[C@H]1C(=O)Nc1ccc([C@@H]2CC[C@@H](c3ccc(NC(=O)[C@@H]4CCCN4C(=O)[C@@H](NC(=O)OC)C(C)C)cc3)N2c2ccc(C(F)(F)F)cc2)cc1)C(C)C
[C] COC(=O)N[C@H](C(=O)N1CCC[C@H]1C(=O)Nc1ccc([C@@H]2CC[C@@H](c3ccc(NC(=O)[C@@H]4CCCN4C(=O)[C@@H](NC(=O)OC)[C@@H](C)OC)cc3)N2c2ccc(F)cc2)cc1)[C@@H](C)OC
input: Ascending by AUC, please. API: response body holds the labels in the requested order.
output: C, B, A
(C: 120 ng·h/mL, B: 500 ng·h/mL, A: 6360 ng·h/mL)

* * *

Protocol Text: Volume of distribution at steady state in dog at 1 mg/kg, iv
Assay type: ADME, organism-based, Canis lupus familiaris
Set-up: dose 1 mg/kg, route intravenous
Condition Set: in vivo, read-out: Vdss
Measured Endpoint: Vd (L/kg)

Record excerpt, results attached:
input: Note Vd for the compound shown: `COC(=O)N[C@H](C(=O)N1CCC[C@H]1C(=O)Nc1ccc([C@H]2CC[C@H](c3ccc(NC(=O)[C@@H]4CCCN4C(=O)[C@@H](NC(=O)OC)C(C)C)cc3)N2c2ccc(C(F)(F)F)cc2)cc1)C(C)C`
output: 1.5

input: Note Vd for the compound shown: `COC(=O)N[C@H](C(=O)N1CCC[C@H]1C(=O)Nc1ccc([C@@H]2CC[C@@H](c3ccc(NC(=O)[C@@H]4CCCN4C(=O)[C@@H](NC(=O)OC)C(C)C)cc3)N2c2ccc(C(C)(C)C)cc2)cc1)C(C)C`
output: 1.8

input: Note Vd for the compound shown: `COC(=O)N[C@H](C(=O)N1CCC[C@H]1C(=O)Nc1ccc([C@H]2CC[C@H](c3ccc(NC(=O)[C@@H]4CCCN4C(=O)[C@@H](NC(=O)OC)C(C)(C)C)cc3)N2c2ccc(F)cc2)cc1)C(C)(C)C`
output: 1.6

[P] COC(=O)N[C@H](C(=O)N1CCC[C@H]1C(=O)Nc1ccc([C@@H]2CC[C@@H](c3ccc(NC(=O)[C@@H]4CCCN4C(=O)[C@@H](NC(=O)OC)C(C)C)cc3)N2c2ccc(C(F)(F)F)cc2)cc1)C(C)C
[Q] COC(=O)N[C@H](C(=O)N1CCC[C@H]1C(=O)Nc1ccc([C@H]2CC[C@H](c3ccc(NC(=O)[C@@H]4CCCN4C(=O)[C@@H](NC(=O)OC)C(C)C)cc3)N2c2ccc(F)cc2)cc1)C(C)C
input: Between P and Q , which one has the lower reported Vd value? Pick one and reply with its label.
output: P
